TARGET OR TEST SYSTEM: T1, human IL-23 (human, UniProt Q9NPF7 20-189; P29460 23-328)
T1 construct: also called hIL-23; human recombinant IL-23
T1 sequence (looked up) 1: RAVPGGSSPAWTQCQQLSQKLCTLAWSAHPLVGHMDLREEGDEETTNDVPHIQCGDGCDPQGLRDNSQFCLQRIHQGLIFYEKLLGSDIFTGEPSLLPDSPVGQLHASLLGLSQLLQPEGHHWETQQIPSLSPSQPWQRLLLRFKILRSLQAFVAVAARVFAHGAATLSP
T1 sequence (looked up) 2: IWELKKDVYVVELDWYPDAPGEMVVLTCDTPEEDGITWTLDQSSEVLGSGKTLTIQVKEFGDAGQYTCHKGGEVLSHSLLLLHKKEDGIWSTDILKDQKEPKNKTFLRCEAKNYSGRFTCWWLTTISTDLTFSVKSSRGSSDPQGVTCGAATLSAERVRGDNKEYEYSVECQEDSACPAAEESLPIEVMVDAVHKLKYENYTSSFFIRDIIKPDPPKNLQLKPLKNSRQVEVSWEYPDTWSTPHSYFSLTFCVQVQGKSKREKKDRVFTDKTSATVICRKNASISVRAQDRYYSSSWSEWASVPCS
ASSAY COMMENT: SPR, Adnectin captured by anti-His mAb, IL-23 injected
MEASUREMENT NAME: Kd (nM)
Answer in nM, number only, no unit symbol.

{"BINDER": "1491A05 (designed binder, captured by anti-His mAb) MGVSDVPRDLEVVAATPTSLLISWGHYPLHVRYYRITYGETGGNSPVQEFTVPSQVYTATISGLKPGVDYTITVYAVTYYAQENYKEIPISINYRTEIDKPSQHHHHHH", "MEASUREMENT UNIT": "nM", "VALUE REPORTED": 2.1}
{"BINDER": "1490H08 (designed binder, captured by anti-His mAb) MGVSDVPRDLEVVAATPTSLLISWGHYPLHIRYYRITYGETGGNSPVQEFTVPNTSHTATISGLKPGVDYTITVYAVTYYNEADYSQIPISINYRTEIDKPSQHHHHHH", "MEASUREMENT UNIT": "nM", "VALUE REPORTED": 3.5}
{"BINDER": "1437A09 (designed binder, captured by anti-His mAb) MGVSDVPRDLEVVAATPTSLLISWGHYPMHVRYYRITYGETGGNSPVQEFTVPSKQHTATISGLKPGVDYTITVYAVTYYNEADYSQIPISINYRTEIDKPSQHHHHHH", "MEASUREMENT UNIT": "nM", "VALUE REPORTED": 5.7}
{"BINDER": "1437G04 (designed binder, captured by anti-His mAb) MGVSDVPRDLEVVAATPTSLLISWGHYPLHVRYYRITYGETGGNSPVQEFTVPYYHYTATISGLKPGVDYTITVYAVTYYNEADYSQIPISINYRTEIDKPSQHHHHHH", "MEASUREMENT UNIT": "nM", "VALUE REPORTED": 3.3}
{"BINDER": "1571G06 (designed binder, captured by anti-His mAb) MGVSDVPRDLEVVAATPTSLLISWGHYPLHLRYYRITYGETGGNSPVQEFTVPRTKYTATISGLKPGVDYTITVYAVTYYKEADYSQIPISINYRTEIDKPSQHHHHHH", "MEASUREMENT UNIT": "nM", "VALUE REPORTED": 1.81}

We next turn to a different binder, shown below.
Task: Please report the measured Kd for 1550 E06 (designed binder, captured by anti-His mAb) MGVSDVPRDLEVVAATPTSLLISWGHYPMHVRYYRITYGETGGNSPVQEFTVPPPRHTATISGLKPGVDYTITVYAVTYYAQENYKEIPISINYRTEIDKPSQHHHHHH
Result: 2.1
